- tested_target: Beta-2 adrenergic receptor (Homo sapiens) (UniProt P07550)
- Sequence (P07550 whole entry, looked up): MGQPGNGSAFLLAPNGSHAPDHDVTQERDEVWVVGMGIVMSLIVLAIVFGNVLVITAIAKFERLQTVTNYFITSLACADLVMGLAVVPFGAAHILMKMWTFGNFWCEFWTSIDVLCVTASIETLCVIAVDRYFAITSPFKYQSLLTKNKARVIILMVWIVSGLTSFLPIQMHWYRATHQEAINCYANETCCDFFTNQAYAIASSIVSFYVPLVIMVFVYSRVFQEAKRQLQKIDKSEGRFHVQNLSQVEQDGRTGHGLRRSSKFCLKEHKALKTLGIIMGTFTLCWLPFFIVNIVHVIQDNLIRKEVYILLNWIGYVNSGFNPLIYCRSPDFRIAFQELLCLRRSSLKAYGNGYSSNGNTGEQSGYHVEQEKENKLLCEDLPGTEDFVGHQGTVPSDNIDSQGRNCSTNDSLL
- procedure_details: agonist-induced loss of surface beta2AR – cell-based, FAP fluorogen, flow cytometry, validation set, pilot screen (AID 504459);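 note: agonist-driven loss of surface beta2AR via internalization measured by FAP dye flow cytometry; reference of the scale not given here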
- details: Am2.2-beta2AR cells, at 10 µM, stronger effect = higher value
We begin with a simple list: items and their reported response.
endpoint_name: response (%)

INSERT INTO results (compound, endpoint_name, readout_number) VALUES
  ('CC(C)CC1c2[nH]c3ccccc3c2CCN1C(=O)CCC(=O)N(C)C (stereo not given)', 'response', 6.34),
  ('COc1ccc(C(=O)N2c3cc4c(cc3C(C)=CC2(C)C)OCO4)cc1', 'response', 4.24),
  ('CC1(C)Oc2ccc(C#N)cc2[C@@H](N2CCCC2=O)[C@@H]1O', 'response', -6.3),
  ('Cc1cn([C@H]2C=C[C@@H](CO)O2)c(=O)[nH]c1=O', 'response', -6.71),
  ('FC(F)(F)c1ccc(-c2noc(CN3CCCN(C4CCCCC4)CC3)n2)cc1', 'response', -4.45);

====

# superoxide response (% of plate) per entry
- procedure_details: calorie-restriction mimetic ROS inhibitors, yeast – validation compound set, pilot screen (AID 2706);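 note: yeast exposed to compound for one week at 30 degrees C before staining; 100% = mean of all compound wells on the same plate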
- details: S. cerevisiae aging, superoxide DHE fluorescence; at 10 µM; stronger effect = lower value
endpoint_name: superoxide response (% of plate) (%)

INSERT INTO measurements (compound, endpoint_name, units_symbol, readout_number) VALUES
  ('C[C@@H]1C[C@H]2[C@@H]3C[C@H](F)C4=CC(=O)C=C[C@]4(C)[C@@]3(F)[C@@H](O)C[C@]2(C)[C@@]1(O)C(=O)COC(=O)C(C)(C)C', 'superoxide response (% of plate)', '%', 104),
  ('CCc1ccc(/C=C2\Oc3cc(OC(=O)N4CCOCC4)ccc3C2=O)cc1', 'superoxide response (% of plate)', '%', 173),
  ('CC1CCc2cc(F)cc3c(=O)c(C(=O)O)cn1c23 (stereo not given)', 'superoxide response (% of plate)', '%', 101),
  ('N/C(=N\OC(=O)CCCOc1ccc(Cl)cc1Cl)c1ccncc1', 'superoxide response (% of plate)', '%', 103),
  ('CCOC(=O)c1ncn2c1CN(C)C(=O)c1cc(F)ccc1-2', 'superoxide response (% of plate)', '%', 115);

====

- tested_target: Beta-adrenergic receptor kinase 1 (Homo sapiens)
- procedure_details: GRK2 binders displacing RNA aptamer, biochemical, validation, human GRK2, bead flow cytometry (AID 488806)
- details: bead-bound GRK2, FAM-aptamer displacement, at 10 µM, stronger effect = higher value
Active and inactive are the calls of the source.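 How the source made its calls: active means aptamer binding inhibition above 30%, about 3 SD of noise from non-fluorescent compounds; inactive means inhibition at or below 30%.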 Square brackets hold non-standard residues; d marks the D form. Peptide text beside a SMILES is read from it. ξ: configuration not given here. ξV = CC(C)C(N)C(=O)O
Some molecules, each annotated with its measured aptamer binding inhibition.
endpoint_name: aptamer binding inhibition

INSERT INTO assay_data (molecule, endpoint_name, result) VALUES
  ('CCN1CCN(C(=S)c2ccc(OC)cc2)CC1', 'aptamer binding inhibition', '2% (inactive)'),
  ('CC12CCC(C(=O)NNc3ccccc3)(C(=O)C1=O)C2(C)C (stereo not given)', 'aptamer binding inhibition', '8% (inactive)'),
  ('Cc1ccc(OCc2nc(-c3cccnc3)no2)cc1C', 'aptamer binding inhibition', '1% (inactive)'),
  ('Cc1ccc(CN2CCN(Cc3cn[nH]c3C3CCCCC3)CC2CCO)cc1 (stereo not given)', 'aptamer binding inhibition', '0% (inactive)'),
  ('CC(=O)N(CCC1(c2ccc(C)cc2)CCOC(C(C)C)C1)Cc1ccco1 (stereo not given)', 'aptamer binding inhibition', '-4% (inactive)'),
  ('COc1ccc(-c2cc(=O)oc3cc(OC(C)C(=O)O)ccc23)cc1 (stereo not given)', 'aptamer binding inhibition', '3% (inactive)'),
  ('CCOCC(=O)Nc1ccccc1C(=O)N1CCOCC1', 'aptamer binding inhibition', '6% (inactive)'),
  ('Cc1cccc(OCC(=O)Nc2ccc(C(=O)NCC(C)C)cc2)c1', 'aptamer binding inhibition', '3% (inactive)'),
  ('COCCOC(=O)C1=C(C)NC(C)=C(C(=O)OC(C)C)C1c1cccc([N+](=O)[O-])c1 (stereo not given)', 'aptamer binding inhibition', '-1% (inactive)'),
  ('N/C(=N\OC(=O)/C=C/c1ccccc1)c1ccc(Br)cc1', 'aptamer binding inhibition', '3% (inactive)'),
  ('Nc1[nH]c(=O)ncc1F', 'aptamer binding inhibition', '0% (inactive)'),
  ('COc1cc2cc(C)nc(Cc3cccc4ccccc34)c2cc1OC', 'aptamer binding inhibition', '3% (inactive)'),
  ('COc1cc(CNCc2ccc(OC)c(OC)c2OC)cc(OC)c1', 'aptamer binding inhibition', '2% (inactive)'),
  ('COc1cccc(OCc2nnc(-c3cccs3)o2)c1', 'aptamer binding inhibition', '3% (inactive)'),
  ('CC(C)Oc1cccc(C(=O)N2CCCC2)c1', 'aptamer binding inhibition', '0% (inactive)'),
  ('COc1ccc(C(C)=O)c2c1OCCO2', 'aptamer binding inhibition', '1% (inactive)'),
  ('NC(=O)c1ccccc1O', 'aptamer binding inhibition', '-1% (inactive)'),
  ('CN1CCN(C2=Nc3ccccc3Oc3ccc(Cl)cc32)CC1', 'aptamer binding inhibition', '-9% (inactive)'),
  ('Cc1ccc(CSCC(=O)N2CCCC2)cc1', 'aptamer binding inhibition', '-2% (inactive)'),
  ('CC(=O)NC(C(=O)NCC(N)=O)C(C)C (stereo not given) (Ac-[ξV]-Gly-NH2)', 'aptamer binding inhibition', '-2% (inactive)'),
  ('CCC(C)NCCOc1ccccc1C (stereo not given)', 'aptamer binding inhibition', '-4% (inactive)'),
  ('NC(N)=N/N=C/c1cccc(Cl)c1Cl', 'aptamer binding inhibition', '-3% (inactive)'),
  ('CC(=O)CCCCn1c(=O)c2c(ncn2C)n(C)c1=O', 'aptamer binding inhibition', '2% (inactive)'),
  ('COc1ccc(C2=CC(=O)C=CC2=O)cc1', 'aptamer binding inhibition', '1% (inactive)'),
  ('CC1(c2ccccc2)CC(C)(C)N2C(=O)C(=O)c3cccc1c32 (stereo not given)', 'aptamer binding inhibition', '4% (inactive)'),
  ('O=c1c(-c2ccccc2)c(O)c2cccc3c2n1CCC3', 'aptamer binding inhibition', '-3% (inactive)'),
  ('CC12CN3CC(C)(CN(C1)C3c1ccc([N+](=O)[O-])o1)C2 (stereo not given)', 'aptamer binding inhibition', '5% (inactive)'),
  ('CC(=O)[C@@]1(O)CC[C@H]2[C@@H]3C[C@H](C)C4=CC(=O)C=C[C@]4(C)[C@@]3(F)[C@@H](O)C[C@@]21C', 'aptamer binding inhibition', '5% (inactive)'),
  ('COc1cccc2c(=O)c3ccccc3oc12', 'aptamer binding inhibition', '2% (inactive)'),
  ('Cc1ncc(CN2CCC(CO)(CCc3ccccc3)CC2)s1', 'aptamer binding inhibition', '2% (inactive)'),
  ('CCSC(=O)CCCCCCCCCCCO', 'aptamer binding inhibition', '0% (inactive)'),
  ('CC1(C)CC(NC(=O)C23CCC(C)(C(=O)C2=O)C3(C)C)CC(C)(C)N1 (stereo not given)', 'aptamer binding inhibition', '3% (inactive)'),
  ('O=C(O)c1cnccn1', 'aptamer binding inhibition', '4% (inactive)'),
  ('Clc1ccc(CCNc2ncnc3nc[nH]c23)cc1', 'aptamer binding inhibition', '4% (inactive)'),
  ('CCC(=O)O[C@]1(C(=O)CCl)[C@@H](C)C[C@H]2[C@@H]3CCC4=CC(=O)C=C[C@]4(C)[C@@]3(F)[C@@H](O)C[C@@]21C', 'aptamer binding inhibition', '4% (inactive)'),
  ('CN(C)CCN(Cc1ccccc1)c1ccccn1', 'aptamer binding inhibition', '1% (inactive)'),
  ('C[C@]12CC[C@@H]3c4ccc(O)cc4[C@@H](O)C[C@H]3[C@@H]1CC[C@@H]2O', 'aptamer binding inhibition', '26% (inactive)'),
  ('COc1cc(C(=O)CCN2CCC(c3ccccc3)C2)cc(OC)c1OC (stereo not given)', 'aptamer binding inhibition', '2% (inactive)'),
  ('Cc1cccc(NC(=O)c2cc3ccccc3o2)c1', 'aptamer binding inhibition', '2% (inactive)'),
  ('CCOC(=O)Cn1c(C)cc(=O)c2ccccc21', 'aptamer binding inhibition', '0% (inactive)');

====

Here the recorded superoxide response (% of plate) is given for each entry.
- procedure_details: calorie-restriction mimetic ROS inhibitors, yeast – validation compound set, pilot screen (AID 2706);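 note: yeast exposed to compound for one week at 30 degrees C before staining; 100% = mean of all compound wells on the same plate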
- details: S. cerevisiae aging, superoxide DHE fluorescence; at 10 µM; stronger effect = lower value
The source made the active and inactive calls.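 The calls were made as follows: active = superoxide response below 65% of plate, a cut near 3 SD across the whole screen; inactive = the rest.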
endpoint_name: superoxide response (% of plate)

INSERT INTO results (molecule, endpoint_name, result) VALUES
  ('Cc1ccc2[nH]c(=O)c(Cc3ccccc3)c(O)c2c1', 'superoxide response (% of plate)', '105% (inactive)'),
  ('Cc1ccccc1NC(=O)C1(C)Cc2ccccc2C(=O)O1 (configuration not stated)', 'superoxide response (% of plate)', '96.3% (inactive)'),
  ('CCCc1cc(=O)[nH]c(=S)[nH]1', 'superoxide response (% of plate)', '86.8% (inactive)'),
  ('S=C(NCc1ccccc1)NCc1cccc(CNC(=S)NCc2ccccc2)c1', 'superoxide response (% of plate)', '81.9% (inactive)'),
  ('CCOc1ccc(C(=O)NC(C)C2COc3ccccc3O2)cc1 (configuration not stated)', 'superoxide response (% of plate)', '108% (inactive)'),
  ('CN1/C(=C\C=Nc2ccccc2)C(C)(C)c2ccccc21', 'superoxide response (% of plate)', '101% (inactive)'),
  ('NC(N)=N/N=C/c1ccc(OS(=O)(=O)c2ccccc2)cc1', 'superoxide response (% of plate)', '93.2% (inactive)'),
  ('COc1cccc2c1OCC1COc3c(c(=O)n(C)c(=O)n3C)C21 (configuration not stated)', 'superoxide response (% of plate)', '95% (inactive)'),
  ('CC(=O)C1=C(O)C(=O)OC1c1ccc(C)cc1 (configuration not stated)', 'superoxide response (% of plate)', '103% (inactive)'),
  ('CC(=O)SC1CC2=CC(=O)CCC2(C)C2CCC3(C)C(CCC34CCC(=O)O4)C12 (configuration not stated)', 'superoxide response (% of plate)', '98.5% (inactive)'),
  ('O=C(CCCN1C(=O)/C(=C\c2cccc(Br)c2)SC1=S)Nc1cccnc1', 'superoxide response (% of plate)', '98.5% (inactive)'),
  ('CCOC(=O)c1cccc(P(C)(C)=O)c1', 'superoxide response (% of plate)', '109% (inactive)'),
  ('CC(C)(Sc1cc(C(C)(C)C)c(O)c(C(C)(C)C)c1)Sc1cc(C(C)(C)C)c(O)c(C(C)(C)C)c1', 'superoxide response (% of plate)', '90.1% (inactive)'),
  ('CC(C)C(CCN1C(=O)CCC1=O)C1CCOC(C)(C)C1 (configuration not stated)', 'superoxide response (% of plate)', '103% (inactive)'),
  ('O=C(CN1C(=O)c2ccccc2S1(=O)=O)Nc1ccccc1', 'superoxide response (% of plate)', '98.5% (inactive)'),
  ('O=C1[C@@H]2CSCN2C(=O)CN1Cc1ccc(F)cc1', 'superoxide response (% of plate)', '111% (inactive)'),
  ('COc1cccc2c(=O)c3ccccc3oc12', 'superoxide response (% of plate)', '109% (inactive)');
